Data origin, for the record: ChEMBL document CHEMBL3758109

# method: Cytotoxicity against human PC3 cells assessed as cell growth inhibition at 10 uM after 48 hrs by MTT assay
# Assay type: functional
# setup conditions: PC-3, 48 h, read-out: GI
Quick rule: inhibition of growth at 10 µM of at least 30% means fulfilled, below that means not fulfilled.

Record excerpt, results attached:
smi	answer label
C=C(C)[C@@H]1CC[C@]2(C(=O)OCc3cn(-c4ccc(NC(=O)c5ccccc5)cc4)nn3)CC[C@]3(C)[C@H](CC[C@@H]4[C@@]5(C)CC[C@H](O)C(C)(C)[C@@H]5CC[C@]43C)[C@@H]12	not fulfilled
C=C(C)[C@@H]1CC[C@]2(C(=O)OCc3cn(-c4cccc(OC)c4OC)nn3)CC[C@]3(C)[C@H](CC[C@@H]4[C@@]5(C)CC[C@H](O)C(C)(C)[C@@H]5CC[C@]43C)[C@@H]12	fulfilled
C=C(C)[C@@H]1CC[C@]2(C(=O)OCc3cn(-c4ccc(F)cc4)nn3)CC[C@]3(C)[C@H](CC[C@@H]4[C@@]5(C)CC[C@H](OCc6cn(-c7ccc(F)cc7)nn6)C(C)(C)[C@@H]5CC[C@]43C)[C@@H]12	not fulfilled

Q) Determine whether this compound has inhibition of growth at 10 µM no lower than 30%: `C=C(C)[C@@H]1CC[C@]2(C(=O)OCc3cn(-c4c(F)ccc(OC)c4Br)nn3)CC[C@]3(C)[C@H](CC[C@@H]4[C@@]5(C)CC[C@H](O)C(C)(C)[C@@H]5CC[C@]43C)[C@@H]12`
A) not fulfilled

Q) Determine whether this compound has inhibition of growth at 10 µM no lower than 30%: `C=C(C)[C@@H]1CC[C@]2(C(=O)OCc3cn(-c4ccccc4I)nn3)CC[C@]3(C)[C@H](CC[C@@H]4[C@@]5(C)CC[C@H](O)C(C)(C)[C@@H]5CC[C@]43C)[C@@H]12`
A) not fulfilled

Q) Determine whether this compound has inhibition of growth at 10 µM no lower than 30%: `C=C(C)[C@@H]1CC[C@]2(C(=O)OCc3cn(-c4ccccc4C#N)nn3)CC[C@]3(C)[C@H](CC[C@@H]4[C@@]5(C)CC[C@H](O)C(C)(C)[C@@H]5CC[C@]43C)[C@@H]12`
A) not fulfilled

Q) Determine whether this compound has inhibition of growth at 10 µM no lower than 30%: `C=C(C)[C@@H]1CC[C@]2(C(=O)OCc3cn(-c4ccccc4OC)nn3)CC[C@]3(C)[C@H](CC[C@@H]4[C@@]5(C)CC[C@H](O)C(C)(C)[C@@H]5CC[C@]43C)[C@@H]12`
A) not fulfilled
